Target: Keap1/Nrf2 (Homo sapiens, UniProt Q14145)
Sequence (Q16236 whole entry): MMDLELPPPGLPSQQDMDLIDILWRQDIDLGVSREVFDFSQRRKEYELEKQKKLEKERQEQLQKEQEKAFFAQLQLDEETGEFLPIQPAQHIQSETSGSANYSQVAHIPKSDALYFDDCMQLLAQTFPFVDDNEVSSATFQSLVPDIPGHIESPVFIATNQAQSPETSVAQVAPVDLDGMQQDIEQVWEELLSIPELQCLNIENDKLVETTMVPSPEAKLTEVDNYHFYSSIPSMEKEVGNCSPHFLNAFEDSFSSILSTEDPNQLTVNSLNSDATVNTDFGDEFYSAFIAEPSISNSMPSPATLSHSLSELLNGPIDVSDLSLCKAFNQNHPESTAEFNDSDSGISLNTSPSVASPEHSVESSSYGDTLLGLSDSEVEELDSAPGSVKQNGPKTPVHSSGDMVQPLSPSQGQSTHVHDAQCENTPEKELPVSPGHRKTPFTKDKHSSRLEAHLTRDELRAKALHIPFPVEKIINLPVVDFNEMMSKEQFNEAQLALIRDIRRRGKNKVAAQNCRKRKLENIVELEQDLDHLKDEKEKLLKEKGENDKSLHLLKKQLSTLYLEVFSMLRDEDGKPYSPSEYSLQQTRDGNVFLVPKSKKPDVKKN
Sequence (Q14145 whole entry): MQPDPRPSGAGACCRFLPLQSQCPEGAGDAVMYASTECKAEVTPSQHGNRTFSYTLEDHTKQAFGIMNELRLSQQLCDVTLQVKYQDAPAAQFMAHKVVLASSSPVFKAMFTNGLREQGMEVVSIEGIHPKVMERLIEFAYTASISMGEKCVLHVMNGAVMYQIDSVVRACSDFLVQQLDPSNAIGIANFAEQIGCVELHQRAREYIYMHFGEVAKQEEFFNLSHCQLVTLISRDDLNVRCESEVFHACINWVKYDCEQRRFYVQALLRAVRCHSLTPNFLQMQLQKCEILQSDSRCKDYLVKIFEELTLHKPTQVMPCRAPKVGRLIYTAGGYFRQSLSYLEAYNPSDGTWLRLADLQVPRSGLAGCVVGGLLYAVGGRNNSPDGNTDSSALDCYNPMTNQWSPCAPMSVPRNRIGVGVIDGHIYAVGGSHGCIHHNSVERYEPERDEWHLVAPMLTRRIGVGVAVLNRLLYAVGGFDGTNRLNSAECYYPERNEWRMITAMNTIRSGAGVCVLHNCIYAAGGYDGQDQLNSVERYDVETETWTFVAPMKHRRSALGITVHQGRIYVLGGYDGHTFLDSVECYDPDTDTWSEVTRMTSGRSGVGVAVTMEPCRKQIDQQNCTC
Test: Inhibition of Keap1-Nrf2 (unknown origin) interaction measured after 60 mins by Fluorescence polarization assay
ENDPOINT LABEL: pKd
Please keep in mind that pKd is minus log10 of the molar concentration; only the number is needed.

COMPOUND: COc1ccc(S(=O)(=O)N(CC(N)=O)c2ccc(N(CC(N)=O)S(=O)(=O)c3ccc(SCCN=C=S)cc3)c3ccccc23)cc1
TEST TARGET: Keap1/Nrf2 (Homo sapiens, UniProt Q14145)
pKd: 5.46
//
COMPOUND: COc1ccc(S(=O)(=O)N(CC(N)=O)c2ccc(N(CC(N)=O)S(=O)(=O)c3ccc([S+]([O-])CCOCCOCCN=C=S)cc3)c3ccccc23)cc1 (centres undefined)
TEST TARGET: Keap1/Nrf2 (Homo sapiens, UniProt Q14145)
pKd: 5.96

Could you share which pKd value was measured for `COc1ccc(S(=O)(=O)N(CC(N)=O)c2ccc(N(CC(N)=O)S(=O)(=O)c3ccc(S(=O)(=O)CCOCCN=C=S)cc3)c3ccccc23)cc1` ?
5.64

Would you mind doing COc1ccc(S(=O)(=O)N(CC(N)=O)c2ccc(N(CC(N)=O)S(=O)(=O)c3ccc([S+]([O-])CCCCCN=C=S)cc3)c3ccccc23)cc1 (centres undefined) as well?
5.74

Can you check COc1ccc(S(=O)(=O)N(CC(N)=O)c2ccc(N(CC(N)=O)S(=O)(=O)c3ccc([S+]([O-])CCN=C=S)cc3)c3ccccc23)cc1 (centres undefined) next?
5.83

* * *

Biological target: Keap1/Nrf2 (Homo sapiens, UniProt Q14145)
Assay: Inhibition of Keap1-Nrf2 (unknown origin) interaction measured after 60 mins by Fluorescence polarization assay
Parameter: Kd. Scope: all listed entries.

Example results:
COMPOUND: COc1ccc(S(=O)(=O)N(CC(N)=O)c2ccc(N(CC(N)=O)S(=O)(=O)c3ccc([S+]([O-])CCOCCOCCOCCN=C=S)cc3)c3ccccc23)cc1 (stereo not drawn)
Kd: > 10000 nM

COMPOUND: COc1ccc(S(=O)(=O)N(CC(N)=O)c2ccc(N(CC(N)=O)S(=O)(=O)c3ccc(S(=O)(=O)CCCCCN=C=S)cc3)c3ccccc23)cc1
Kd: > 10000 nM

COMPOUND: COc1ccc(S(=O)(=O)N(CC(N)=O)c2ccc(N(CC(N)=O)S(=O)(=O)c3ccc([S+]([O-])CCCN=C=S)cc3)c3ccccc23)cc1 (stereo not drawn)
Kd: 455 nM

COMPOUND: COc1ccc(S(=O)(=O)N(CC(N)=O)c2ccc(N(CC(N)=O)S(=O)(=O)c3ccc(SCCOCCN=C=S)cc3)c3ccccc23)cc1
Kd: 8510 nM

COMPOUND: COc1ccc(S(=O)(=O)N(CC(N)=O)c2ccc(N(CC(N)=O)S(=O)(=O)c3ccc(S(=O)(=O)CCOCCOCCN=C=S)cc3)c3ccccc23)cc1
Kd: 1220 nM

Return reported Kd; argument: `COc1ccc(S(=O)(=O)N(CC(N)=O)c2ccc(N(CC(N)=O)S(=O)(=O)c3ccc(N=C=S)cc3)c3ccccc23)cc1`
106 nM

Cool, now COc1ccc(S(=O)(=O)N(CC(N)=O)c2ccc(N(CC(N)=O)S(=O)(=O)c3ccc([S+]([O-])CCOCCN=C=S)cc3)c3ccccc23)cc1 (stereo not drawn)
3080 nM

Another compound to look at: COc1ccc(S(=O)(=O)N(CC(N)=O)c2ccc(N(CC(N)=O)S(=O)(=O)c3ccc([S+]([O-])CCCCN=C=S)cc3)c3ccccc23)cc1 (stereo not drawn)
1270 nM

Please do the same for `COc1ccc(S(=O)(=O)N(CC(N)=O)c2ccc(N(CC(N)=O)S(=O)(=O)c3ccc(S(=O)(=O)CCN=C=S)cc3)c3ccccc23)cc1` as well.
658 nM

Another compound to check: `COc1ccc(S(=O)(=O)N(CC(N)=O)c2ccc(N(CC(N)=O)S(=O)(=O)c3ccc(SCCOCCOCCN=C=S)cc3)c3ccccc23)cc1`
> 10000 nM

Subsequent entry: `COc1ccc(S(=O)(=O)N(CC(N)=O)c2ccc(N(CC(N)=O)S(=O)(=O)c3ccc(SCCCN=C=S)cc3)c3ccccc23)cc1`
> 10000 nM

Repeat with `COc1ccc(S(=O)(=O)N(CC(N)=O)c2ccc(N(CC(N)=O)S(=O)(=O)c3ccc(S(=O)(=O)CCCCN=C=S)cc3)c3ccccc23)cc1`
> 10000 nM

Cool, now `COc1ccc(S(=O)(=O)N(CC(N)=O)c2ccc(N(CC(N)=O)S(=O)(=O)c3ccc(S(=O)(=O)CCCN=C=S)cc3)c3ccccc23)cc1`
> 10000 nM

* * *

Experiment: Cytotoxicity against mouse peritoneal macrophages assessed as reduction in cell viability measured after 24 hrs by CCK8 assay
Format: cell-based, Peritoneal macrophage
# CC50 at 24 h per entry

MOLECULE: COc1ccc(S(=O)(=O)N(CC(N)=O)c2ccc(N(CC(N)=O)S(=O)(=O)c3ccc(SCCCCN=C=S)cc3)c3ccccc23)cc1
CC50 at 24 h: > 10 µM

Item under review: C[S+]([O-])CCCCN=C=S (stereo not drawn) . Reported CC50 at 24 h?
> 10 µM

Entry to check: `COc1ccc(S(=O)(=O)N(CC(N)=O)c2ccc(N(CC(N)=O)S(=O)(=O)c3ccc(SCCCN=C=S)cc3)c3ccccc23)cc1`
> 10 µM

Please do the same for COc1ccc(S(=O)(=O)N(CC(N)=O)c2ccc(N(CC(N)=O)S(=O)(=O)c3ccc([S+]([O-])CCN=C=S)cc3)c3ccccc23)cc1 (stereo not drawn) as well.
> 10 µM

Proceed to `COc1ccc(S(=O)(=O)N(CC(N)=O)c2ccc(N(CC(N)=O)S(=O)(=O)c3ccc(S(=O)(=O)CCOCCN=C=S)cc3)c3ccccc23)cc1`
> 10 µM

# iterate: `COc1ccc(S(=O)(=O)N(CC(N)=O)c2ccc(N(CC(N)=O)S(=O)(=O)c3ccc(S(=O)(=O)CCN=C=S)cc3)c3ccccc23)cc1`
> 10 µM
